Each entry below carries its recorded inhibition.
Biological target: Aβ 1-42 fibrils (Homo sapiens)
Construct: purchased Bachem Inc
Assay: Thioflavin T fluorometry - disruption of pre-formed Aβ 1-42 Alzheimer's fibrils
Type: biochemical
Conditions: Aβ:test compound wt/wt ratio 1:1; 25 μM pre-fibrillized Aβ 1-42, 37° C., 3 days; read-out: % Inhibition Aβ (result ± S.D.)
measurement type: inhibition (%)

| compound | endpoint value |
| --- | --- |
| O=C(Nc1ccc(O)c(O)c1)Nc1ccc(O)c(O)c1 [Compound 76, 1,3-bis(3,4-dihydroxyphenyl)urea] | 99.3 |
| Oc1ccc(CN2CCN(Cc3ccc(O)c(O)c3)CC2)cc1O [Compound 9, 1,4-bis(3,4-dihydroxybenzyl)piperazine] | 95.1 |
| O=C(c1ccc(O)c(O)c1)C(O)c1ccc(O)c(O)c1 (stereo not shown) [Compound 1, 3,4,3′,4′-tetrahydroxybenzoin] | 97.3 |
| Oc1ccc(CN[C@@H]2CCCC[C@H]2NCc2ccc(O)c(O)c2)cc1O (relative stereo) | 99.7 |
| O=C(CCc1ccc(O)c(O)c1)Nc1ccc(O)c(O)c1 | 88.4 |
| Oc1ccc(CNCc2ccc(O)c(O)c2)cc1O [Compound 73, bis(3,4-dihydroxybenzyl)amine] | 99.4 |
| O=C(CCc1ccc(O)c(O)c1)NCc1ccc(O)c(O)c1 | 94.8 |
| O=C(NCc1ccc(O)c(O)c1)c1ccc(O)c(O)c1 | 93.7 |
| O=C(N[C@@H]1CCCC[C@H]1NC(=O)c1ccc(O)c(O)c1)c1ccc(O)c(O)c1 (relative stereo) | 37.8 |
| Oc1ccc(CCc2ccc(O)c(O)c2)cc1O [Compound 4, 1,2-bis(3,4-dihydroxyphenyl)ethane] | 98.5 |
| O=C(NCCc1ccc(O)c(O)c1)Nc1ccc(O)c(O)c1 | 100 |
| O=C(Nc1ccc(O)c(O)c1)c1ccc(O)c(O)c1 | 99.4 |
| O=C(Nc1ccc(O)c(O)c1)C(=O)Nc1ccc(O)c(O)c1 [Compound 63, oxalic acid bis(3,4-dihydroxyanilide)] | 85.3 |
| O=C(C=Cc1ccc(O)c(O)c1)NCc1ccc(O)c(O)c1 | 100 |
| O=C(CCC(=O)Nc1ccc(O)c(O)c1)Nc1ccc(O)c(O)c1 [Compound 66, succinic acid bis(3,4-dihydroxyanilide)] | 100 |
| O=C(CCC(=O)NCc1ccc(O)c(O)c1)NCc1ccc(O)c(O)c1 | 98.3 |

----------
Target: IAPP fibrils (Homo sapiens, UniProt P10997)
Construct: purchased Bachem Inc
Sequence (P10997 34-70 limits assumed): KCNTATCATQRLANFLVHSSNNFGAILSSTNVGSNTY
Experiment: Congo red binding assay with IAPP fibrils
Format: biochemical
Details: IAPP:test compound wt/wt ratio 1:0.001; 3-day incubation
measurement type: % Inhibition IAPP (result ± S.D.), Congo red binding (%)

| compound | endpoint value |
| --- | --- |
| O=C(Nc1ccc(O)c(O)c1)Nc1ccc(O)c(O)c1 [Compound 76, 1,3-bis(3,4-dihydroxyphenyl)urea] | 3.4 |
| O=C(O)CN(CCN(CC(=O)O)CC(=O)O)CC(=O)O [EDTA, reference compound] | 6.6 |
| O=C(N[C@@H]1CCCC[C@H]1NC(=O)c1ccc(O)c(O)c1)c1ccc(O)c(O)c1 (relative stereo) | 10.8 |
| O=C(CCC(=O)Nc1ccc(O)c(O)c1)Nc1ccc(O)c(O)c1 [Compound 66, succinic acid bis(3,4-dihydroxyanilide)] | 4.8 |
| O=C(CCc1ccc(O)c(O)c1)Nc1ccc(O)c(O)c1 | 4.5 |
| O=C(Nc1ccc(O)c(O)c1)c1ccc(O)c(O)c1 | 1.6 |
| Oc1ccc(CN(Cc2ccc(O)c(O)c2)Cc2ccc(O)c(O)c2)cc1O [Compound 75, tris(3,4-dihydroxybenzyl)amine] | 2.9 |
| O=C(Nc1ccc(O)c(O)c1)C(=O)Nc1ccc(O)c(O)c1 [Compound 63, oxalic acid bis(3,4-dihydroxyanilide)] | 0.0 |
| O=C(CCc1ccc(O)c(O)c1)NCc1ccc(O)c(O)c1 | 0.0 |
| O=C(NCCc1ccc(O)c(O)c1)Nc1ccc(O)c(O)c1 | 6.6 |
| O=C(c1ccc(O)c(O)c1)N1CCN(C(=O)c2ccc(O)c(O)c2)CC1 [Compound 23, 1,4-bis(3,4-dihydroxybenzoyl)piperazine] | 5.1 |

----------
Each entry below carries its recorded inhibition.
Molecular target: IAPP fibrils (Homo sapiens)
Construct: purchased Bachem Inc
Experiment: Thioflavin T fluorometry - disruption of type 2 diabetes IAPP fibrils
Format: biochemical
Settings: IAPP:test compound wt/wt ratio 1:0.1; 25 μM pre-fibrillized IAPP, 37° C., 3 days; read-out: % Inhibition IAPP (result ± S.D.)
measurement type: inhibition (%)

| molecule | u | endpoint value |
| --- | --- | --- |
| O=C(NCCc1ccc(O)c(O)c1)Nc1ccc(O)c(O)c1 | % | 92.4 |
| O=C(c1ccc(O)c(O)c1)C(O)c1ccc(O)c(O)c1 (stereo not drawn) [Compound 1, 3,4,3′,4′-tetrahydroxybenzoin] | % | 93 |
| Oc1ccc(CN[C@@H]2CCCC[C@H]2NCc2ccc(O)c(O)c2)cc1O (relative stereo) | % | 86 |
| Oc1ccc(CN(Cc2ccc(O)c(O)c2)Cc2ccc(O)c(O)c2)cc1O [Compound 75, tris(3,4-dihydroxybenzyl)amine] | % | 90 |
| O=C(CCC(=O)NCc1ccc(O)c(O)c1)NCc1ccc(O)c(O)c1 | % | 81.4 |
| O=C(CCc1ccc(O)c(O)c1)Nc1ccc(O)c(O)c1 | % | 73.2 |
| O=C(C=Cc1ccc(O)c(O)c1)NCc1ccc(O)c(O)c1 | % | 83.6 |
| Oc1ccc(CCc2ccc(O)c(O)c2)cc1O [Compound 4, 1,2-bis(3,4-dihydroxyphenyl)ethane] | % | 96 |
| O=C(CCc1ccc(O)c(O)c1)NCc1ccc(O)c(O)c1 | % | 87.6 |

----------
Molecular target: IAPP fibrils (Homo sapiens)
Construct: purchased Bachem Inc
Assay: Congo red binding assay with IAPP fibrils
Format: biochemical
Details: IAPP:test compound wt/wt ratio 1:0.01; 3-day incubation
measurement type: % Inhibition IAPP (result ± S.D.), Congo red binding (%)

| molecule | endpoint value |
| --- | --- |
| O=C(CCC(=O)NCc1ccc(O)c(O)c1)NCc1ccc(O)c(O)c1 | 10.6 |
| O=C(c1ccc(O)c(O)c1)C(O)c1ccc(O)c(O)c1 (centres unmarked) [Compound 1, 3,4,3′,4′-tetrahydroxybenzoin] | 18.6 |
| O=C(c1ccc(O)c(O)c1)N1CCN(C(=O)c2ccc(O)c(O)c2)CC1 [Compound 23, 1,4-bis(3,4-dihydroxybenzoyl)piperazine] | 9.3 |
| CN1C2CCC1C(Cc1ccc(O)c(O)c1)C(=O)C2Cc1ccc(O)c(O)c1 (centres unmarked) [Compound 19, 2,4-bis(3,4-dihydroxybenzyl)-3-tropinone] | 6.0 |
| Oc1ccc(CN[C@@H]2CCCC[C@H]2NCc2ccc(O)c(O)c2)cc1O (relative stereo) | 6.9 |
| O=C(O)CN(CCN(CC(=O)O)CC(=O)O)CC(=O)O [EDTA, reference compound] | 3.6 |
| O=C(C=Cc1ccc(O)c(O)c1)NCc1ccc(O)c(O)c1 | 4.0 |
| O=C(Nc1ccc(O)c(O)c1)c1ccc(O)c(O)c1 | 3.6 |
| O=C(Nc1ccc(O)c(O)c1)C(=O)Nc1ccc(O)c(O)c1 [Compound 63, oxalic acid bis(3,4-dihydroxyanilide)] | 11.7 |
| O=C(NCCc1ccc(O)c(O)c1)Nc1ccc(O)c(O)c1 | 19.9 |
| O=C(CCc1ccc(O)c(O)c1)NCc1ccc(O)c(O)c1 | 4.6 |
| O=C(Nc1ccc(O)c(O)c1)Nc1ccc(O)c(O)c1 [Compound 76, 1,3-bis(3,4-dihydroxyphenyl)urea] | 14.2 |
| O=C(NCc1ccc(O)c(O)c1)c1ccc(O)c(O)c1 | 11.0 |
| O=C(CCC(=O)Nc1ccc(O)c(O)c1)Nc1ccc(O)c(O)c1 [Compound 66, succinic acid bis(3,4-dihydroxyanilide)] | 5.7 |
| O=C(NCc1ccc(O)c(O)c1)C(=Cc1ccc(O)c(O)c1)NC(=O)c1ccc(O)c(O)c1 | 5.1 |
| Oc1ccc(CN(Cc2ccc(O)c(O)c2)Cc2ccc(O)c(O)c2)cc1O [Compound 75, tris(3,4-dihydroxybenzyl)amine] | 11.3 |
| Cc1nc(-c2ccc(O)c(O)c2)cc(-c2ccc(O)c(O)c2)c1C#N | 7.2 |
| O=C(N[C@@H]1CCCC[C@H]1NC(=O)c1ccc(O)c(O)c1)c1ccc(O)c(O)c1 (relative stereo) | 5.3 |
| Oc1ccc(Cc2ccc(O)c(O)c2)cc1O [Compound 3, 3,4,3′,4′-tetrahydroxydiphenylmethane] | 16.3 |
| O=C(CCc1ccc(O)c(O)c1)Nc1ccc(O)c(O)c1 | 8.5 |

----------
Molecular target: Aβ 1-42 fibrils (Homo sapiens, UniProt P05067)
Construct: purchased Bachem Inc
Sequence (P05067 672-713): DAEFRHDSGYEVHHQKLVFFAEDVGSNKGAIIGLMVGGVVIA
Assay: Thioflavin T fluorometry - disruption of pre-formed Aβ 1-42 Alzheimer's fibrils
Type: biochemical
Settings: Aβ:test compound wt/wt ratio 1:0.01; 25 μM pre-fibrillized Aβ 1-42, 37° C., 3 days; read-out: % Inhibition Aβ (result ± S.D.)
measurement type: inhibition

| molecule | measurement type | endpoint value |
| --- | --- | --- |
| O=C(CCC(=O)NCc1ccc(O)c(O)c1)NCc1ccc(O)c(O)c1 [Compound 67] | inhibition | 34% |
| O=C(NCc1ccc(O)c(O)c1)c1ccc(O)c(O)c1 [Compound 52] | inhibition | 12.1% |
| O=C(Nc1ccc(O)c(O)c1)C(=O)Nc1ccc(O)c(O)c1 [Compound 63, oxalic acid bis(3,4-dihydroxyanilide)] | inhibition | 57.5% |
| O=C(NCCc1ccc(O)c(O)c1)Nc1ccc(O)c(O)c1 [Compound 78] | inhibition | 57.8% |
| O=C(N[C@@H]1CCCC[C@H]1NC(=O)c1ccc(O)c(O)c1)c1ccc(O)c(O)c1 (relative stereo) [Compound 26] | inhibition | 0% |
| Oc1ccc(CN2CCN(Cc3ccc(O)c(O)c3)CC2)cc1O [Compound 9, 1,4-bis(3,4-dihydroxybenzyl)piperazine] | inhibition | 2% |
| O=C(Nc1ccc(O)c(O)c1)Nc1ccc(O)c(O)c1 [Compound 76, 1,3-bis(3,4-dihydroxyphenyl)urea] | inhibition | 40.9% |
| Oc1ccc(CN(Cc2ccc(O)c(O)c2)Cc2ccc(O)c(O)c2)cc1O [Compound 75, tris(3,4-dihydroxybenzyl)amine] | inhibition | 31.6% |
